Target: MEK (Homo sapiens, UniProt Q02750)
Construct: no tag is given for the 2D mutant
Sequence (Q02750 whole entry S218D/S222D, form open): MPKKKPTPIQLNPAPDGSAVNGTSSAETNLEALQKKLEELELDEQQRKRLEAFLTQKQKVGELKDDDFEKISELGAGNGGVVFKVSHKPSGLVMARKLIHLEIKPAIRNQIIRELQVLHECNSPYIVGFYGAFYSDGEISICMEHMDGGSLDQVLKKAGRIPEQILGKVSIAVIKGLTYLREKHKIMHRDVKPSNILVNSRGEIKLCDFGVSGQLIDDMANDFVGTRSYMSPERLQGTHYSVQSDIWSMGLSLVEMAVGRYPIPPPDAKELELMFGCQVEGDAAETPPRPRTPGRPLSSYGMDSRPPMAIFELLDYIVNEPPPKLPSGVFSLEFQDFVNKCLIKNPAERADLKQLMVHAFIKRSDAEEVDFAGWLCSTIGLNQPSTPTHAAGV
Experiment: in vitro MEK assay
REPORTED_PROPERTY: IC50 (µM)

(I) Cc1cc(I)ccc1Nc1c(C(=O)O)cc(C(=O)N2CCSC2)c(F)c1F [Example 98]
(II) Cc1cc(I)ccc1N1COC(=O)c2cc(C(=O)N(C)C)c(F)c(F)c21 [Example 5]
(III) Cc1cc(I)ccc1Nc1c(C(=O)O)cc(C(=O)NCCc2c[nH]cn2)c(F)c1F [Example 88]
(IV) Cc1cc(I)ccc1Nc1c(C(=O)O)cc(C(=O)N2CCCC(O)C2)c(F)c1F (centres unmarked) [Example 75]
(V) Cc1cc(I)ccc1Nc1c(C(=O)O)cc(C(=O)N2CCSCC2)c(F)c1F [Example 99]
I would appreciate it if you could sort these 5 compounds by IC50, starting from the smallest number. Answer format: the labels, ordered as requested.
I, V, IV, III, II
(I: 0.087 µM, V: 0.15 µM, IV: 0.465 µM, III: 1.4 µM, II: 5.8 µM)

====

Molecular target: MEK (Homo sapiens)
Construct: no tag is given for the 2D mutant
Test: in vitro MEK assay
Assay type: biochemical
Details: @ 1 μM
Protocol: For evaluation of direct MEK activity, 10 μg GST-MEK, is incubated in the presence of absence of test compound with 5 μg of a glutathione S-transferase fusion protein containing p44MAP kinase with a lysine to alanine mutation at position 71 (GST-MAPK-KA). This mutation eliminates kinase activity of MAPK, so only kinase activity attributed to the added MEK remains. […] Radioactivity incorporated into GST-MAPK-KA is determined by autoradiography, and subsequent scintillation counting of excised bands. […]
REPORTED_PROPERTY: in vitro MEK assay: % inhibition @ 1 μM (%)

{"columns": ["COMPOUND", "READOUT_NUMBER"],
 "data": [
  ["Cc1cc(I)ccc1N1COC(=O)c2cc(C(=O)N3CCCC(O)C3)c(F)c(F)c21 (centres unmarked)", 48]
]}

(1) Cc1cc(I)ccc1Nc1c(C(=O)O)cc(C(=O)N2CCCCC2CO)c(F)c1F (centres unmarked)
(2) Cc1cc(I)ccc1Nc1c(C(=O)O)cc(C(=O)N2CCOCC2)c(F)c1F
(3) Cc1cc(I)ccc1N1COC(=O)c2cc(C(=O)NCCC3CCCN3C)c(F)c(F)c21 (centres unmarked)
Highest in vitro MEK assay: % inhibition @ 1 μM first, then in falling order down to the smallest. Write the labels, ordered according to the request.
2, 1, 3

====

Target: MEK (Homo sapiens, UniProt Q02750)
Construct: no tag is given for the 2D mutant
Assay: in vitro MEK assay
Format: biochemical
Settings: @ 1 μM
REPORTED_PROPERTY: in vitro MEK assay: % inhibition @ 1 μM (%)

{"columns": ["SMILES_CODE", "READOUT_NUMBER"],
 "data": [
  ["Cc1cc(I)ccc1N1COC(=O)c2cc(C(=O)N3CCC(CCO)CC3)c(F)c(F)c21", 69]
]}

(1) Cc1cc(I)ccc1Nc1c(C(=O)O)cc(C(=O)NCCc2ccccn2)c(F)c1F
(2) Cc1cc(I)ccc1N1COC(=O)c2cc(C(=O)NCC3(O)CCCCC3)c(F)c(F)c21
(3) COc1ccc2c(CCNC(=O)c3cc4c(c(F)c3F)N(c3ccc(I)cc3C)COC4=O)c[nH]c2c1
Please order the records by their reported in vitro MEK assay: % inhibition @ 1 μM, lowest number first. // ordering of labels required in reply
3, 2, 1

====

Target: MEK (Homo sapiens, UniProt Q02750)
Construct: no tag is given for the 2D mutant
Assay: in vitro MEK assay
Assay type: biochemical
Settings: @ 1 μM
Procedure: For evaluation of direct MEK activity, 10 μg GST-MEK, is incubated in the presence of absence of test compound with 5 μg of a glutathione S-transferase fusion protein containing p44MAP kinase with a lysine to alanine mutation at position 71 (GST-MAPK-KA). This mutation eliminates kinase activity of MAPK, so only kinase activity attributed to the added MEK remains. […] Radioactivity incorporated into GST-MAPK-KA is determined by autoradiography, and subsequent scintillation counting of excised bands. […]
REPORTED_PROPERTY: in vitro MEK assay: % inhibition @ 1 μM (%)

{"columns": ["COMPOUND", "REPORTED_PROPERTY", "UNIT_ABBREVIATION", "READOUT_NUMBER"],
 "data": [
  ["Cc1cc(I)ccc1Nc1c(C(=O)O)cc(C(=O)Nc2ccc3cn[nH]c3c2)c(F)c1F [Example 86]", "in vitro MEK assay: % inhibition @ 1 μM", "%", 77],
  ["CCN1CCN(C(=O)c2cc(C(=O)O)c(Nc3ccc(I)cc3C)c(F)c2F)CC1 [Example 93]", "in vitro MEK assay: % inhibition @ 1 μM", "%", 70]
]}

(1) Cc1cc(I)ccc1Nc1c(C(=O)O)cc(C(=O)N2CCCC(O)C2)c(F)c1F (centres unmarked) [Example 75]
(2) Cc1cc(I)ccc1N1COC(=O)c2cc(C(=O)N(CCO)CCO)c(F)c(F)c21 [Example 49]
(3) Cc1cc(I)ccc1N1COC(=O)c2cc(C(=O)Nc3nccs3)c(F)c(F)c21 [Example 31]
Hello, I need these entries ordered by in vitro MEK assay: % inhibition @ 1 μM, highest reading first. Thanks! // list labels; follow requested order
1, 2, 3
(1: 92%, 2: 50%, 3: 32%)

(1) Cc1cc(I)ccc1Nc1c(C(=O)O)cc(C(=O)Nc2ccc(Cl)nc2)c(F)c1F [Example 85]
(2) Cc1cc(I)ccc1N1COC(=O)c2cc(C(=O)NCCN3CCCCC3)c(F)c(F)c21 [Example 10]
For the pair 1 and 2 , which member has the lower in vitro MEK assay: % inhibition @ 1 μM number? Selection: enter the item's label.
2
(2: 44%, 1: 90%)

====

Target: MEK (Homo sapiens, UniProt Q02750)
Construct: no tag is given for the 2D mutant
Assay: in vitro MEK assay
Format: biochemical
Conditions: @ 1 μM
REPORTED_PROPERTY: in vitro MEK assay: % inhibition @ 1 μM (%)

{"columns": ["COMPOUND", "TEST_SYSTEM", "UNIT_ABBREVIATION", "READOUT_NUMBER"],
 "data": [
  ["Cc1cc(I)ccc1N1COC(=O)c2cc(C(=O)Nc3cc[nH]n3)c(F)c(F)c21", "MEK (Homo sapiens, UniProt Q02750)", "%", 60],
  ["Cc1cc(I)ccc1N1COC(=O)c2cc(C(=O)NC3CCCC[C@@H]3O)c(F)c(F)c21 (stereo in doubt)", "MEK (Homo sapiens, UniProt Q02750)", "%", 30],
  ["Cc1cc(I)ccc1Nc1c(C(=O)O)cc(C(=O)N2CCSC2)c(F)c1F", "MEK (Homo sapiens, UniProt Q02750)", "%", 86],
  ["CCc1nnc(NC(=O)c2cc3c(c(F)c2F)N(c2ccc(I)cc2C)COC3=O)s1", "MEK (Homo sapiens, UniProt Q02750)", "%", 20]
]}

(a) Cc1cc(I)ccc1Nc1c(C(=O)O)cc(C(=O)NCCC2CCCN2C)c(F)c1F (centres unmarked)
(b) Cc1cc(I)ccc1N1COC(=O)c2cc(C(=O)NCCc3c[nH]cn3)c(F)c(F)c21
Of a and b , which carries the smaller reported in vitro MEK assay: % inhibition @ 1 μM figure? // output: label of the selected item
a

====

Biological target: MEK (Homo sapiens, UniProt Q02750)
Construct: no tag is given for the 2D mutant
Test: in vitro MEK assay
Type: biochemical
Details: @ 1 μM
REPORTED_PROPERTY: in vitro MEK assay: % inhibition @ 1 μM (%)

{"columns": ["MOLECULE", "UNIT_ABBREVIATION", "READOUT_NUMBER"],
 "data": [
  ["Cc1cc(I)ccc1N1COC(=O)c2cc(C(=O)NCC3CCCO3)c(F)c(F)c21 (centres unmarked) [Example 57]", "%", 35],
  ["Cc1cc(I)ccc1Nc1c(C(=O)O)cc(C(=O)NCCCn2ccnc2)c(F)c1F [Example 90]", "%", 59],
  ["CCCCN(CCS)C(=O)c1cc(C(=O)O)c(Nc2ccc(I)cc2C)c(F)c1F [Example 68]", "%", 24],
  ["Cc1cc(I)ccc1Nc1c(C(=O)O)cc(C(=O)NCCN2CCOCC2)c(F)c1F [Example 79]", "%", 54],
  ["Cc1cc(I)ccc1Nc1c(C(=O)O)cc(C(=O)N2CCC(O)CC2)c(F)c1F [Example 81]", "%", 86]
]}

(A) Cc1cc(I)ccc1N1COC(=O)c2cc(C(=O)NCCOCCO)c(F)c(F)c21 [Example 18]
(B) Cc1cc(I)ccc1Nc1c(C(=O)O)cc(C(=O)NCc2ccncc2)c(F)c1F [Example 80]
// compare: A vs B , metric in vitro MEK assay: % inhibition @ 1 μM, want the smaller When you have decided, please share the label of that item.
A

Reference source for all entries: patent US7001905B2
